- tgt: Endothelial lipase (Homo sapiens)
- Sequence (Q9Y5X9 whole entry): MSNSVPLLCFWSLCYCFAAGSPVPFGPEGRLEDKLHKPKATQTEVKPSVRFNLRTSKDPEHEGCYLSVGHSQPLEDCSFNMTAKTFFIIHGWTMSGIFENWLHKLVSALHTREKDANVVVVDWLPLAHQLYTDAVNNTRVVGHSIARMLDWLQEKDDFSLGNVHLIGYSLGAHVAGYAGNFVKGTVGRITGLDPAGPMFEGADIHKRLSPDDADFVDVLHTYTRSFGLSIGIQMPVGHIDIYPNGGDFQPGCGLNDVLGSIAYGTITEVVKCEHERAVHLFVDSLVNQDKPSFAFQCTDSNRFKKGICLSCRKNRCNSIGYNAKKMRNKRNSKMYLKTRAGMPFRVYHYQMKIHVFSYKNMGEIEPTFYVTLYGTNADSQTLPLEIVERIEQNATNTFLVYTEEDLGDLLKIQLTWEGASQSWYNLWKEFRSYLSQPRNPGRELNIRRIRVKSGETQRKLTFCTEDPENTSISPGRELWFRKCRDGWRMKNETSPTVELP
- experimental protocol: Enzymatic Assay: Endothelial lipase activity was measured using a fluorescent substrate, A10070, (Invitrogen, CA) doped into an artificial vesicle containing DMPG (Avanti Polar Lipids) as the excipient. Vesicles were prepared by combining 285 uL of 1 mMDMPG in a 1:1 mixture of MeOH and CHCl3 with 15 uL of 1 mM A10070 in a 1:1 mixture of MeOH and CHCl3. The mixture was dried under nitrogen and resuspended in 150 uL of 50 mM HEPES pH 8.0 buffer containing 100 mM NaCl and 0.2 mM EDTA. The sample was allowed to sit at rt for 15 min and then was sonicated 3x4 mins on ice with a Branson Sonicator using duty cycle 1. This preparation provides vesicles with a mole fraction of 0.05 for the FRET substrate.The enzymatic assay was measured using white, opaque 96-well half area plates. Each well contained 60 uL of assay buffer (50 mM HEPES pH 8.0, 50 mM NaCl and 1 mM CaCl2) and 2 ul of a DMSO solution containing compound of interest. Conditioned media obtained from HT-1080 cells, which were transformed by RAGE technology (Athersys) to overexpress endogenous EL, was added and the reaction was allowed to incubate for 20 min at 37deg; C. with gentle agitation. The reaction was started by the addition of 20 uL of a 1:4 dilution of vesicles. The final total reaction volume was 100 uL. The reaction rates were measured on a Gemini plate reader with an excitation wavelength of 488 nm and a emission of 530 nm. Readings were taken every 20 seconds for 10 min with agitation between each reading. The slope of the linear portion of the readout was used to calculate the rate of the reaction.
observation type: IC50 (µM)
Express your answer in µM, writing the number without its unit.

Example entries and their recorded answers appear below.
CC(=O)Nc1ccc(-c2cccc([C@@H](C)NC(=O)C3=C(O)C(=O)N(c4ccc(F)cc4F)C3)c2)cc1 : 0.0271
CN1CC(C(=O)NCc2ccc(Oc3ccc(Cl)c(Cl)c3)cc2)=C(O)C1=O : 0.027

IN: Hello, I am looking for reported IC50 with Endothelial lipase (Homo sapiens) for CN1CC(C(=O)NCCCOc2cccc(Oc3ccccc3)c2)=C(O)C1=O . Could you help?
OUT: 0.0221

IN: GET /values?readout=IC50&system=Endothelial lipase (Homo sapiens)&item= CN1CC(C(=O)NCc2ccc(Oc3ccccc3)cc2)=C(O)C1=O
OUT: 0.043

# credit: ChEMBL document CHEMBL3887008
